Where these numbers come from: patent US20090291971A1

# ASSAYED TARGET: recombinant human B-Raf (Homo sapiens)
# Construct: Flag; GST; purchased Upstate; host or cells: Sf21 insect cells
# Sequence (P15056 whole entry): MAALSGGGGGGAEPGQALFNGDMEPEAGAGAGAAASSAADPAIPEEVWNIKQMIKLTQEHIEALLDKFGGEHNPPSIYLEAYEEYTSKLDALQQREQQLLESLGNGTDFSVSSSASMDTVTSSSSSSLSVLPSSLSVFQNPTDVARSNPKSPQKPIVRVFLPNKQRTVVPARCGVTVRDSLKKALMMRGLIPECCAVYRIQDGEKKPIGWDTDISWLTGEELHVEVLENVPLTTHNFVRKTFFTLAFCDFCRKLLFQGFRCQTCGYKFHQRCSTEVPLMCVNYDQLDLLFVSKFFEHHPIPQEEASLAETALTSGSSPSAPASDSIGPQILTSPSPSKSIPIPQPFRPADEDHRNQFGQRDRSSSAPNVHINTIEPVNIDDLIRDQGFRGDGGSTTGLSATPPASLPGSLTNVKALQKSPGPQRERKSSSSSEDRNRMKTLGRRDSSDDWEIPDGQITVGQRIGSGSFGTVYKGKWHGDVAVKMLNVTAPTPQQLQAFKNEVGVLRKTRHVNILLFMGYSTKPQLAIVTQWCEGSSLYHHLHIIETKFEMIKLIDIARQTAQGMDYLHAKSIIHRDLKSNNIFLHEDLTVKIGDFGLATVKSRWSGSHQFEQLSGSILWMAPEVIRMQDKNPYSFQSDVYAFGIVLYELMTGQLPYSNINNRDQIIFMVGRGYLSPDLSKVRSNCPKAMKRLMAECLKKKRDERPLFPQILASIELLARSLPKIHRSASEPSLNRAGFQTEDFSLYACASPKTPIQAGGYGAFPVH
# ASSAY METHOD TEXT: B-Raf Kinase Assay
# Format: biochemical
VALUE TYPE: inhibition at 10 µM (%)

>  <SMILES STRING>
Clc1ccc(Oc2ncnc3ccccc23)cn1

>  <RECORDED MEASUREMENT>
20

$$$$
>  <SMILES STRING>
Cn1ccc(Oc2ccccc2)nc1=O

>  <RECORDED MEASUREMENT>
17

$$$$
>  <SMILES STRING>
c1ccc2c(Oc3ccc4[nH]ccc4c3)ncnc2c1

>  <RECORDED MEASUREMENT>
21

$$$$
>  <SMILES STRING>
c1ccc2c(Oc3ccsc3)ncnc2c1

>  <RECORDED MEASUREMENT>
14

$$$$
